Molecular target: Phosphatidylinositol 4,5-bisphosphate 3-kinase catalytic subunit delta isoform (Homo sapiens, UniProt O00329)
Sequence (O00329 whole entry): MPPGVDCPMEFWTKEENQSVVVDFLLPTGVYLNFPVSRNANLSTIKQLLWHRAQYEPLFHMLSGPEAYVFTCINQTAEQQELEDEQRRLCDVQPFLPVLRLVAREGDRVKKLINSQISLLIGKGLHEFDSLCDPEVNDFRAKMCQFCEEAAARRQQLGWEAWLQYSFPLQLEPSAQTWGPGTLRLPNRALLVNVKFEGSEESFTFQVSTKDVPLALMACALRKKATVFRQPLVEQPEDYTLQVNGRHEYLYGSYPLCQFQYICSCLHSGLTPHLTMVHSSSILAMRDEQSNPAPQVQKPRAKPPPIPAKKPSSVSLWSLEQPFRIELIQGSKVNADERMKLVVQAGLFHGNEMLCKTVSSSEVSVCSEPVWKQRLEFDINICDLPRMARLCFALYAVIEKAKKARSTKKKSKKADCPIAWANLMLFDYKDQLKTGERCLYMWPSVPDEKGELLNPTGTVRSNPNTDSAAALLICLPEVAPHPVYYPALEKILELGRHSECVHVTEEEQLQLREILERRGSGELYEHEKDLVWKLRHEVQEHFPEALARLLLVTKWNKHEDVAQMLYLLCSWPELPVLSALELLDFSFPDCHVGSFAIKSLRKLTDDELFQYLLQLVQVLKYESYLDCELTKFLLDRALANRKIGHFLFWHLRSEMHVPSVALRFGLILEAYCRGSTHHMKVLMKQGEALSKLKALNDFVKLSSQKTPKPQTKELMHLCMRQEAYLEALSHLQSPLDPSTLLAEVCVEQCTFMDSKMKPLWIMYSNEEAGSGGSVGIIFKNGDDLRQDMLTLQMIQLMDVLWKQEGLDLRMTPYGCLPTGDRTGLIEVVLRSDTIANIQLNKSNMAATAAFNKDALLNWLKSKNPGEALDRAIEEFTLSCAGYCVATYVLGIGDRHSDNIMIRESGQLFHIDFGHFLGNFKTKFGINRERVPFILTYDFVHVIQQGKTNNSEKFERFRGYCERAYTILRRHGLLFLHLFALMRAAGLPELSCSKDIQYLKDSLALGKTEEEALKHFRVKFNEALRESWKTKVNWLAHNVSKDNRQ
Test: Inhibition of PI3Kdelta in human whole blood assessed as suppression of CD69 expression
pIC50: −log10 of the molar value.
attribute_measured: pIC50

(A) Cc1nc(-c2cn3c(n2)-c2cc([C@H](C)N4CCN(C(C)(C)C)CC4)ncc2OCC3)n(C(C)C)n1
(B) Cc1nc(-c2cn3c(n2)-c2cc([C@@H](C)N4CCN(C(C)(C)C)CC4)c(F)cc2OCC3)n(C(C)C)n1
input: Param metric = pIC50; output whichever of A , B has the minimum value. When you have decided, please share the label of that item.
output: A
